Tested on: MOLT-4 leukemia
Assay Text: NCI-60 one-dose screen, 48 h (100 = growth as untreated, 0 = no growth, -100 = all killed)
Condition Parameters: 10 µM
Compounds without any hit were thinned out: in the full panel of roughly 83,000, 20% have a hit.
Consider the following compounds; for each one, report its growth.
Give bare numbers, in %.

Take a look at these entries with their results.
Compound: S=C1NCc2cncnc2N1
System Under Test: MOLT-4 leukemia
Measured: 95.6

Compound: CCOC(=O)CCCS(C)(=O)=O
System Under Test: MOLT-4 leukemia
Measured: 96.5

Compound: COC1=CC(=O)c2nc(Cl)ccc2C1=O
System Under Test: MOLT-4 leukemia
Measured: -27.4

Compound: O=C(Cc1nc2ccc([N+](=O)[O-])cc2nc1CC(=O)c1cccnc1)c1cccnc1
System Under Test: MOLT-4 leukemia
Measured: 80.8

Compound: O=C(/C=C\c1ccc(O)cc1)c1ccccc1
System Under Test: MOLT-4 leukemia
Measured: 96.1

Compound: Cc1cc(N)c(S(=O)(=O)O)c(N)c1
System Under Test: MOLT-4 leukemia
Measured: 5.11

We now examine a further compound.
So, C=CC(O)CCC (configuration not stated) ? Its growth was 110

###

Tested on: NCI/ADR-RES ovarian
Assay Text: NCI-60 one-dose screen, 48 h (100 = growth as untreated, 0 = no growth, -100 = all killed)
Condition Parameters: 10 µM
The panel holds about 83,000 compounds, 20% with a hit somewhere; the sample as a whole holds those more often.
I'd be grateful if you could share measured growth for these entries.
One number for each entry, in %.

Molecule: CN(C)c1ccc(CNC(C(=O)c2ccccc2)c2ccccc2)cc1 (stereo not drawn)
growth / %: 101
//
Molecule: Cc1cc2nc(CC(=O)c3ccccc3)c(=O)[nH]c2cc1C
growth / %: 94.6
//
Molecule: CC(=O)OC1CC2C(C)(C)OC3CC(=O)OCC32C2CCC3(C)C(=CCC3c3ccoc3)C12C (stereo not drawn)
growth / %: 124
//
Molecule: COC(=O)Nc1nc2ccc(C(=O)c3cccs3)cc2[nH]1
growth / %: -20.4
//
Molecule: CC(C)C1CCCCC1O (stereo not drawn)
growth / %: 104
//
Molecule: Cc1cc(N2CCC(N3CCCC3)CC2)nc(/N=C(\N)Nc2ccc(Cl)c(Cl)c2)n1
growth / %: 30.3
//
Molecule: O=[N+]([O-])c1cccc(C(F)(F)F)c1
growth / %: 106
//
Molecule: Cc1ccc(S(=O)(=O)O)c(C)c1
growth / %: 104

Batch: growth for all items listed.
1. CC(O)COc1ccc(-c2ccccc2)cc1 (stereo not drawn)
2. Cc1cc(Cc2cc(C)c(N)cc2N)c(N)cc1N
3. COc1ccc(C(C)C=O)cc1 (stereo not drawn)
4. CN(C)C(C)(C)CC(C)(C)C
5. CC1=CC(=O)c2ccccc2C1=O

110
95.8
104
103
107

###

System: ACHN renal
Assay Text: NCI-60 one-dose screen, 48 h (100 = growth as untreated, 0 = no growth, -100 = all killed)
Condition Parameters: 10 µM
Compounds without any hit were thinned out: in the full panel of roughly 83,000, 20% have a hit.
Reported Metric: growth (%)
Numbers only, in %.

The following molecules each have a reported value; give each one's growth.
1. O=C(O)/C=C/c1ccc2c(c1)CCC2
2. COS(=O)(=O)c1ccc(Br)cc1
3. CCOc1ccc(/C=C/C(=O)c2ccccc2)cc1
4. Sc1ccc(Nc2c3ccccc3nc3ccccc23)cc1

[107, 103, 108, 97]

Hey, can you go through the list below and give me growth for every item?
1. CCC/C=C(\C)C(C)(C#N)C(=O)OCC (configuration not stated)
2. CC(O)COc1ccc(-c2ccccc2)cc1 (configuration not stated)
3. Cc1cc(Cc2cc(C)c(N)cc2N)c(N)cc1N

1. 106
2. 103
3. 98.8

###

Tested on: K-562 leukemia
Assay Text: NCI-60 one-dose screen, 48 h (100 = growth as untreated, 0 = no growth, -100 = all killed)
Condition Parameters: 10 µM
The panel holds about 83,000 compounds, 20% with a hit somewhere; the sample as a whole holds those more often.
Reported Metric: growth (%)
Give bare numbers, in %.

Molecule: N#CSc1cc(S(N)(=O)=O)ccc1N
Measurement Units: %
growth: 113
--
Molecule: COC(=O)c1cc(-c2ccc(Cl)c(Cl)c2)[nH]c(=O)c1C#N
Measurement Units: %
growth: 108
--
Molecule: O=c1cc(-c2ccccc2)nc2cc(-c3ccco3)[nH]n12
Measurement Units: %
growth: 42.8

# batch size: 7; output growth per entry
1. COc1ccc(C(O)c2ccccc2)cc1 (stereo not drawn)
2. OCc1cccc2ccccc12
3. CC(=O)c1c[nH]c2ccccc12
4. O=C1NC(=O)C2C(=O)NC(=O)C1C21CCc2ccccc21 (stereo not drawn)
5. CC1(c2ccccc2)NC(=O)NC1=O (stereo not drawn)
6. CCCCC/C=N/Nc1nc(C)cc(=O)[nH]1
7. Cc1cc(NC(=O)CSCC(=O)O)no1

88.5
99.3
103
98.2
103
105
117

Provide growth values for the following items, in order.
1. CC(=O)OCC1=CC2OC(=O)C3=COC(OC4OC(CO)C(O)C(O)C4O)C1C32 (stereo not drawn)
2. C[C@@H](c1ccccc1)[C@@H](C(=O)O)c1ccccc1
3. CCCC(=O)Nc1ccc2c(c1)CN1C(=O)c3ccccc3C1=N2

1: 121; 2: 110; 3: 102

###

Tested on: MDA-MB-435 melanoma
Assay Text: NCI-60 one-dose screen, 48 h
Condition Parameters: 10 µM
Compounds without any hit were thinned out: in the full panel of roughly 83,000, 20% have a hit. Active and inactive are the calls of the source. How the source made its calls: active means growth percent below 10; inactive means the rest.
Assign a class; possible classes are active, inactive

The examples below pair each entry with its known result.
Compound: O=C(O)CSCSCC(=O)O
Assigned Class: inactive
//
Compound: FC(F)(F)c1ccc2c(c1)N(CCCN1CCN(C3CC3)CC1)c1ccccc1S2
Assigned Class: inactive
//
Compound: OCCN(CCO)C(=S)S
Assigned Class: inactive
//
Compound: CC(C)(O)C#CC#CC(C)(C)O
Assigned Class: inactive

Which result was noted for this compound in the test: CS(=O)CC1=NC(=N)N=C1CS(C)=O (stereo not drawn) inactive

Just curious, what result did CC(=O)OCCC(C)CCC=C(C)C (stereo not drawn) get here? inactive

Check the results log: what was the call for `CNC(=O)c1ccccc1CC1(O)c2ccccc2Oc2ccccc21` ? active

For `Cc1ccncc1C(N)=O` , which call appears in the assay record? inactive

What was the test verdict on `CCCNc1ccc(C2=NCCCN2)cc1` ? inactive

Answer briefly: the call reported for O=P(O)(O)OCC(O)CO (stereo not drawn) in this assay. inactive

###

Record form. Attribute: growth. Fill in for each entry.
System: NCI-H322M lung
Assay Text: NCI-60 one-dose screen, 48 h (100 = growth as untreated, 0 = no growth, -100 = all killed)
Condition Parameters: 10 µM
This is part of a sample that, as a whole, favours compounds with a hit. Of some 83,000 tested, about 20% had one in any assay.
Give bare numbers, in %.

These solved cases illustrate the format of a correct answer.
Molecule: OCc1cccc2ccccc12
Measured: 121
--
Molecule: CC1=NN(c2ccccc2)C(=O)/C1=C\N1CC(=O)NC1=S
Measured: 108
--
Molecule: CC1C(=O)c2ccccc2CC1C(=O)O (centres undefined)
Measured: 99.5
--
Molecule: O=C(Cc1nc2ccc([N+](=O)[O-])cc2nc1CC(=O)c1ccccc1)c1ccccc1
Measured: 61
--
Molecule: CCCCN(CCCC)CCCO
Measured: 136

I would be grateful if you could provide growth for each of the following entries.
1. O=C1Cc2cc(O)ccc2O1
2. Cc1cc(N)ccc1-c1ccc(N)cc1C
3. O=[N+]([O-])c1ccc(N=Nc2ccccc2)cc1
4. O=C1N(C[P+](c2ccccc2)(c2ccccc2)c2ccccc2)CCCN1C[P+](c1ccccc1)(c1ccccc1)c1ccccc1
5. O=C(c1ccc(O)cc1)c1ccc(O)cc1

[94.5, 104, 80, 106, 95.3]

###

System: RPMI-8226 leukemia
Assay Text: NCI-60 one-dose screen, 48 h
Condition Parameters: 10 µM
About 83,000 compounds went through this panel and 20% of them were active in at least one assay; those are over-represented in the sample as a whole. Active and inactive are the calls of the source. Rule for the calls: active = growth percent below 10; inactive = the rest.
// classify into TRUE (active), FALSE (inactive)

Compound: N#Cc1c(N)sc(=S)c2c1CCCC2
Assigned Class: FALSE
//
Compound: O=C(O)CSCSCC(=O)O
Assigned Class: FALSE
//
Compound: CC(=Nc1ccccc1)C1=C(O)C(Cc2cccc(F)c2)NC1=O (stereo unspecified)
Assigned Class: TRUE
//
Compound: CC(=O)OCC1CCCO1 (stereo unspecified)
Assigned Class: FALSE
//
Compound: COc1cc2cc(c1Cl)N(C)C(=O)C[C@H](OC(=O)[C@H](C)N(C)C(C)=O)[C@]1(C)O[C@H]1[C@H](C)[C@@H]1C[C@@](O)(NC(=O)O1)[C@H](OC)C=C/C=C(\C)C2
Assigned Class: TRUE

In this assay, the call recorded for `CCCCC/C=N/Nc1nc(C)cc(=O)[nH]1` was what? FALSE

// param item: `COc1cc(/C=N\Nc2ccccc2)ccc1OC(=O)c1ccccc1` ; yields the recorded call FALSE

What did this assay record as the result for `CC(C)=CC(=O)OC(=O)C=C(C)C` ? FALSE

What classification did `CCOC(=O)C(=O)C=P(c1ccccc1)(c1ccccc1)c1ccccc1` end up with in this test? FALSE

Any idea what this test logged for `CC(=O)c1ccc2c(ccc3ccccc32)c1` ? FALSE

Outcome? `COc1ccc2c(c1)CCc1c-2n[nH]c1-c1[nH]nc2c1CCc1cc(OC)ccc1-2` FALSE

Numbers sourced from PubChem BioAssay (NCI).
